Below, each of the molecules is paired with its reported CC50 at 3 days value.
- assay_overview: Cell viability assay HEK293 (CellTiter-Glo)
- Type: cell-based
- condition: human, HEK293 cells, read-out: HEK293 (CC50 code)

{"molecule": "CC(C)C(=O)N1Cc2ccccc2C[C@H]1CN1CCN(c2ccc(C(=O)NS(=O)(=O)c3ccc(NCC4CCOCC4)c([N+](=O)[O-])c3)c(Oc3cnc4[nH]ccc4c3)c2)CC1", "CC50 at 3 days": "> 25 µM"}
{"molecule": "O=C(NS(=O)(=O)c1ccc(NCC2CCOCC2)c([N+](=O)[O-])c1)c1ccc(N2CCN(CC(c3ccccc3)c3ccccc3)CC2)cc1Oc1cnc2[nH]ccc2c1", "CC50 at 3 days": "> 25 µM"}
{"molecule": "O=C(NS(=O)(=O)c1ccc(NCC2CCOCC2)c([N+](=O)[O-])c1)c1ccc(N2CCC(CN3C(=O)C4(CCCC4)C3c3ccc(Cl)cc3)CC2)cc1Oc1cnc2[nH]ccc2c1 (stereo not shown)", "CC50 at 3 days": "> 25 µM"}
{"molecule": "COCCNc1ccc(S(=O)(=O)NC(=O)c2ccc(N3CCC(CN4CCCCC4c4ccc(Cl)cc4)CC3)cc2Oc2cnc3[nH]ccc3c2)cc1[N+](=O)[O-] (stereo not shown)", "CC50 at 3 days": "> 25 µM"}
{"molecule": "O=C(NS(=O)(=O)c1ccc(NCC2CCOCC2)c([N+](=O)[O-])c1)c1ccc(N2CCC(CN3C(=O)C4(CCCC4)C3c3ccc(Cl)cc3)CC2)cc1Oc1ccc2[nH]ccc2c1 (stereo not shown)", "CC50 at 3 days": "≤ 10 µM"}
{"molecule": "Cc1cc(Cl)ccc1C1N(CC2CCN(c3ccc(C(=O)NS(=O)(=O)c4ccc(NCC5CCOCC5)c([N+](=O)[O-])c4)c(Oc4cnc5[nH]ccc5c4)c3)CC2)C(=O)C12CCCC2 (stereo not shown)", "CC50 at 3 days": "> 25 µM"}
{"molecule": "O=C(NS(=O)(=O)c1ccc(NCC2CCOCC2)c([N+](=O)[O-])c1)c1ccc(N2CCN(CC3Cc4ccc(Cl)cc4CN3C(=O)C3CC3)CC2)cc1Oc1cnc2[nH]ccc2c1 (stereo not shown)", "CC50 at 3 days": "> 25 µM"}
{"molecule": "CC(C)C(=O)N1Cc2cc(F)ccc2C[C@H]1CN1CCN(c2ccc(C(=O)NS(=O)(=O)c3ccc(NCC4CCOCC4)c([N+](=O)[O-])c3)c(Oc3cnc4[nH]ccc4c3)c2)CC1", "CC50 at 3 days": "> 25 µM"}
{"molecule": "O=C(NS(=O)(=O)c1ccc(NCC2CCOCC2)c([N+](=O)[O-])c1)c1ccc(N2CCN(C[C@@H]3CC(F)(F)CN3c3ccc(Cl)cc3)CC2)cc1Oc1cnc2[nH]ccc2c1", "CC50 at 3 days": "10 to 25 µM"}
{"molecule": "O=C(NS(=O)(=O)c1ccc(NCC2CCOCC2)c([N+](=O)[O-])c1)c1ccc(N2CCN(C[C@@H]3Cc4ccccc4CN3C(=O)C3CC3)CC2)cc1Oc1cnc2[nH]ccc2c1", "CC50 at 3 days": "> 25 µM"}
